# ASSAY_EXPLANATION: Cytotoxicity, neutral red uptake, 3T3
# Assay type: cell-based, murine
# ASSAY_SETUP: mouse; 48 h, neutral red uptake; read-out: Cytotoxicity (CC50) 3T3
// values below are reported CC50 at 48 h
Expressed in µM, but write only the number.

{"columns": ["COMPOUND", "UNIT_SYMBOL", "CC50 at 48 h"],
 "data": [
  ["Nc1ncnc2c1ncn2[C@@H]1O[C@H](C[C@@H](N)CC[C@H](N)C(=O)O)[C@@H](O)[C@H]1O [Sinefungin, reference compound]", "µM", 99.2]
]}

Moving on to another compound below.
Which CC50 at 48 h value belongs to O=C(Cc1csc(SCC(=O)c2ccccc2)n1)Nc1cccc2nsnc12 ?
116

###

# STUDY_SYSTEM: SARS-CoV-2 nsp14 (Severe acute respiratory syndrome coronavirus 2, UniProt P0DTD1)
# ASSAY_EXPLANATION: biochemical
Catalogue of pIC50 readings, one per entry.
For clarity, pIC50 is expressed as the negative log10 of concentration in mol/L.

{"columns": ["MOLECULE", "STUDY_SYSTEM", "QUANTITY_MEASURED", "VALUE_MEASURED"],
 "data": [
  ["O=C(Cc1csc(SCC(=O)c2ccccc2)n1)Nc1cccc2nsnc12", "SARS-CoV-2 nsp14 (Severe acute respiratory syndrome coronavirus 2, UniProt P0DTD1)", "pIC50", 3.93]
]}

Query (molecule): Nc1ncnc2c1ncn2[C@@H]1O[C@H](CSCC[C@H](N)C(=O)O)[C@@H](O)[C@H]1O [S-(5′-Adenosyl)-L-homocysteine (SAH), S-(5′-Adenosyl)-L-homocysteine, reference compound] ; field requested: pIC50
6.85

Can you share its pIC50? I mean this molecule: O=C(CCCn1cncn1)N1CCCC(c2nc3ccccc3s2)C1 (stereo not shown)
4.11

Please look up its pIC50: O=C(Cn1c(=O)[nH]c2c(-c3ccccc3)c[nH]c2c1=O)NCc1cccnc1
3.97

###

Each entry below carries its reported log10 IC50.
# STUDY_SYSTEM: SARS-CoV-2 nsp16/nsp10 (Severe acute respiratory syndrome coronavirus 2, UniProt P0DTD1)
# ASSAY_EXPLANATION: biochemical
# ASSAY_SETUP: HTRF, nsp16/nsp10, SAM 10 µM, m7GpppA-RNA; read-out: IC50 nsp16
The figures below represent log10 of IC50, where IC50 is stated in µM.

{"columns": ["COMPOUND", "STUDY_SYSTEM", "log10 IC50"],
 "data": [
  ["Cc1nc(O)cc(CNc2nc3c(c(=O)[nH]2)Cc2ccccc2OC3)n1 [ZINC000095519272]", "SARS-CoV-2 nsp16/nsp10 (Severe acute respiratory syndrome coronavirus 2, UniProt P0DTD1)", 1.98]
]}

Lab note: next compound to report on.
Record request: log10 IC50 value, item Nc1ncnc2c1ncn2[C@@H]1O[C@H](C(=O)N2CCN(CC(=O)Nc3cccc4c3CNC4=O)CC2)[C@@H](O)[C@H]1O [ZINC000017654909]
1.88

###

# STUDY_SYSTEM: SARS-CoV-2 nsp14 (Severe acute respiratory syndrome coronavirus 2, UniProt P0DTD1)
# ASSAY_EXPLANATION: biochemical
# ASSAY_SETUP: 100 μM
QUANTITY_MEASURED: Percent inhibition at 100 μM, nsp14 (%)
Give the number; % is assumed, so skip it.

Some solved entries appear below for comparison.
{"columns": ["COMPOUND", "Percent inhibition at 100 μM, nsp14 (%)"],
 "data": [
  ["CCN(Cc1ccncc1)C(=O)CC1C(=O)NCCN1CCCc1ccccc1 (stereo not drawn) [ZINC000011821342]", 5],
  ["Cc1nc(CC(=O)N2CCCC(c3nc4ccccc4s3)C2)cs1 (stereo not drawn) [Compound 021-760-906]", 10],
  ["O=C(CCCn1cncn1)N1CCCC(c2nc3ccccc3s2)C1 (stereo not drawn) [Compound 045-938-897]", 7],
  ["Nc1nc2c(c(=O)[nH]1)CC(CCc1ccc(C(=O)NC(CCC(=O)O)C(=O)O)cc1)CN2 (stereo not drawn) [ZINC000077301924]", 5],
  ["O=C(Cc1nnc(O)c2ccccc12)NCC(O)c1ccccc1 (stereo not drawn) [ZINC000009340377]", 5]
]}

Find the recorded Percent inhibition at 100 μM, nsp14 belonging to CCOc1c(Cl)cc(C(=O)Nc2cccc(C(=O)O)c2)cc1Cl [ZINC000004649202] and report it.
-1

GET /values?readout=Percent inhibition at 100 μM, nsp14&item= O=C(CCc1ccc(O)cc1)NC(c1ccc2c(c1)CCO2)C1CC(O)C1 (stereo not drawn) [ZINC000220681335]
0

Consider the compound CC(C(=O)NCCCn1ccnn1)c1n[nH]c(=O)c2ccccc12 (stereo not drawn) [ZINC000215108606] and give its measured Percent inhibition at 100 μM, nsp14.
9

Quick one: Percent inhibition at 100 μM, nsp14 for CN(CC1CCN(c2ccccc2)C1)S(=O)(=O)c1ccc2[nH]c(=O)oc2c1 (stereo not drawn) [ZINC000952973746] ?
27

Entry O=C(CCc1c[nH]c2ccccc12)N1CCCC1c1ccc[nH]1 (stereo not drawn) [ZINC000019688789] : reported Percent inhibition at 100 μM, nsp14 = ?
2

I am curious: what Percent inhibition at 100 μM, nsp14 value has been reported for O=C(CN1C(=O)c2ccccc2N2C(=O)c3ccccc3C12)N1CCc2c([nH]c3ccccc23)C1 (stereo not drawn) [ZINC000604419204] ?
5

Return reported Percent inhibition at 100 μM, nsp14; argument: COc1cccc(C2CC(O)=Nc3c2c(C)nn3-c2ncnc3[nH]cnc23)c1 (stereo not drawn) [ZINC000020745418]
-8

I would be grateful if you could share the reported Percent inhibition at 100 μM, nsp14 for CC(C)Cn1c(CNC(=O)c2ccccc2C(F)(F)F)nnc1SCc1ccncc1 [ZINC000012152850] .
2

Would you kindly share the measured Percent inhibition at 100 μM, nsp14 for CC[C@H](C)[C@H](N)C(=O)NS(=O)(=O)OC[C@H]1O[C@@H](n2cnc3c(N)ncnc32)[C@H](O)[C@@H]1O [ZINC000013488353] ?
8

Any idea what Percent inhibition at 100 μM, nsp14 was measured for Cc1ccc(Oc2ncccc2CNC(=O)c2cnc(O)cc2O)cn1 [ZINC000067754517] ?
11

I have this compound here, Cc1nc(O)cc(CNc2nc3c(c(=O)[nH]2)Cc2ccccc2OC3)n1 [ZINC000095519272] , and I need its recorded Percent inhibition at 100 μM, nsp14.
49

Requested read-out: Percent inhibition at 100 μM, nsp14. Entry: O=C(O)CCC(=O)Nc1nc2n(n1)C(c1ccccc1)CC(=O)N2 (stereo not drawn) [ZINC000000095711]
-16

Consider the compound shown here: Cn1cnn(CCC(=O)N2CCCC(c3nc4ccccc4s3)C2)c1=O (stereo not drawn) [Compound 046-705-372] What is its recorded Percent inhibition at 100 μM, nsp14?
5

Name the recorded Percent inhibition at 100 μM, nsp14 for C=CCn1c(=O)c(=O)n(CC(=O)NCCN2CCN(c3cc(Cl)ccc3C)CC2)c2ccccc21 [ZINC000033268761] .
9

// Percent inhibition at 100 μM, nsp14 lookup, key: CCN(CCSc1ccccc1)C(=O)c1cc(-c2ccncc2)n[nH]1 [ZINC000097636636]
5

Form field: reported Percent inhibition at 100 μM, nsp14 of CC(=O)c1cccc(OCc2cc(C(=O)NCC(N)=O)n[nH]2)c1 [ZINC000067920483]
2

Return reported Percent inhibition at 100 μM, nsp14; argument: CN(C)c1nc2c(c(=O)[nH]1)CCN(C(=O)c1n[nH]cc1Cl)C2 [ZINC000072172639]
-1

Dear colleague, I am looking for the recorded Percent inhibition at 100 μM, nsp14 of the following compound: CC1=C(C(=O)O)N2C(=O)C(NC(=O)C(N)c3ccc(O)cc3)C2SC1 (stereo not drawn) [ZINC000003830391]
-18

Percent inhibition at 100 μM, nsp14 for CN(CCNc1nc2c(c(=O)[nH]1)Cc1ccccc1OC2)S(C)(=O)=O [Compound 028-736-920] ?
8

###

# STUDY_SYSTEM: SARS-CoV-2 nsp16/nsp10 (Severe acute respiratory syndrome coronavirus 2)
# ASSAY_EXPLANATION: biochemical
# ASSAY_SETUP: 100 μM
QUANTITY_MEASURED: Percent inhibition at 100 μM, nsp16
In your response, the unit should come after the numeric value.

Some solved cases for reference:
{"columns": ["COMPOUND", "VALUE_MEASURED"],
 "data": [
  ["Cc1ccc(NC(=O)Cn2c(=O)n(CC(=O)NCc3ccco3)c(=O)c3ccccc32)cc1C", "-8 ±4%"],
  ["O=C(Cc1csc(SCC(=O)c2ccccc2)n1)Nc1ccccc1", "-17 ±4%"]
]}

// next entry
Endpoint output: Percent inhibition at 100 μM, nsp16 of Cn1cc(CCC(=O)N2CCCC(c3nc4ccccc4s3)C2)cn1 (stereo not drawn) . Value?
-113 ±16%

# credit: paper PMC8705538
